// provenance: PubChem BioAssay (NCI)

MEASUREMENT DESCRIPTION: NCI Yeast Anticancer Drug Screen. Data for the bub3 strain (AID 167)
EXPERIMENTAL SETUP: S. cerevisiae bub3 mutant strain, at 5.0 µM (retest, dose inferred, filed as 0.5), hits give high values
This is part of a sample that, as a whole, favours compounds with a hit. Of some 79,000 tested, about 15% had one in any assay.
Lab note: anything with growth inhibition at or over 80% counts as met; the rest go in not met.

Enquiry: Hello, I need to know if COC1=[C]([Hg][Br])C(OC)OC1OC (configuration not stated) has measured growth inhibition not below 80%. Thanks!
Return: met

Enquiry: In plain terms: is recorded growth inhibition at least 80% for Nc1c(Br)cc(Br)c2c1C(=O)c1ccccc1C2=O ?
Return: not met

Enquiry: Has Cc1ccc(S)cc1.[Pb] a recorded growth inhibition greater than or equal to 80%?
Return: not met

Enquiry: # check: growth inhibition of CC1C(=O)OCC1(C)O (configuration not stated) is greater than or equal to 80%
Return: not met

Enquiry: Quick check: does C/C(=N\N=C(/[Se])N1CC2CCC(CC2)C1)c1ccccn1 have growth inhibition greater than or equal to 80%?
Return: not met

Enquiry: hey, is growth inhibition for this one >= 80%? CN(C)c1ccc(/C=C/c2cc[n+]3ccsc3n2)cc1
Return: not met

Enquiry: Does the compound O=C1C=C(CN(CCCl)CCCl)C(=O)C=C1CN(CCCl)CCCl have recorded growth inhibition that is 80% or more?
Return: not met

Enquiry: Say whether [O]=[Sb][c]1ccc(Cl)cc1 shows growth inhibition of 80% or more.
Return: not met

Enquiry: State whether the measured growth inhibition reaches 80%, counting equality as reaching it, for Cc1ccc(C#CCN2CCCCC2)cn1
Return: not met

Enquiry: Could you verify whether the entry Oc1ccc(Br)cc1C1N(Cc2ccc(N(CCCl)CCCl)cc2Cl)CCCN1Cc1ccc(N(CCCl)CCCl)cc1Cl shows growth inhibition of no less than 80%?
Return: met

Enquiry: Reported growth inhibition reaches at least 80% for CCC[CH2][Sn]([Cl])([CH2]Cl)[CH2]CCC ?
Return: met

Enquiry: # check: growth inhibition of C[CH2][Sn]1([CH2]C)[c]2ccccc2Oc2cccc[c]21 is greater than or equal to 80%
Return: met

====

MEASUREMENT DESCRIPTION: NCI Yeast Anticancer Drug Screen. Data for the sgs1 strain (AID 173);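 further: 0% = growth of vehicle-only control cultures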
EXPERIMENTAL SETUP: S. cerevisiae sgs1 mutant, at 3.7 µM, hits give high values
About 79,000 compounds went through this panel and 15% of them were active in at least one assay; those are over-represented in the sample as a whole.
# binarize growth inhibition: threshold 20% inclusive, high side TRUE, low side FALSE

Enquiry: Record COC(=O)C(F)C(Br)C(=O)OC (configuration not stated) ; criterion: growth inhibition no lower than 20%. Met?
Return: TRUE

Enquiry: Does the compound CSC(=Nc1ccccc1)N(c1ccccc1)c1nc(=[N+](C)C)ss1 have recorded growth inhibition that is 20% or more?
Return: TRUE

Enquiry: Please check the record O=[N+]([O-])c1ccc(-n2nc3ccc4c(no[n+]4[O-])c3[n+]2[O-])c([N+](=O)[O-])c1 and state if its growth inhibition is at or above 20%.
Return: FALSE

Enquiry: Given the entry CC[PH+](CC)CC.CC[PH+](CC)CC.[Au] , answer whether its growth inhibition meets or surpasses 20%.
Return: TRUE

Enquiry: Reported growth inhibition at or above 20%? O=S(=O)(O)/C(=C\c1ccccc1)c1ccccc1 (tested in a mixture with another compound)
Return: FALSE

Enquiry: Confirm if growth inhibition reported for the compound c1ccc(N=c2nc(N3CCOCC3)ss2)cc1 is 20% or above.
Return: TRUE

Enquiry: growth inhibition >= 20% for Nc1nc(-c2ccccc2)c(-c2ccccc2)[se]1 ?
Return: FALSE

Enquiry: Form field: growth inhibition at least 20%? Entry: CCNC(=O)OCC1C2=C(C(=O)C(C)=C(N)C2=O)N2CC3C(N3C)C12OC (configuration not stated)
Return: FALSE

Enquiry: Quick check, growth inhibition >= 20%? CCN(CC)CCBr
Return: FALSE

Enquiry: Say whether CC1CCCN(CCc2ccccc2)CC1 (configuration not stated) shows growth inhibition of 20% or more.
Return: FALSE

Enquiry: Could you verify whether the entry C/C(=N\O)c1ccc2ccc3ccccc3c2c1 shows growth inhibition of no less than 20%?
Return: FALSE

====

MEASUREMENT DESCRIPTION: NCI Yeast Anticancer Drug Screen. Data for the mlh1 rad18 strain (AID 175)
EXPERIMENTAL SETUP: S. cerevisiae mlh1 rad18 strain growth inhibition; at 50.0 µM (retest, dose inferred, filed as 5.0)
This is part of a sample that, as a whole, favours compounds with a hit. Of some 79,000 tested, about 15% had one in any assay. Calls of active or inactive are those of the source. Cut-off read from the data, not from the text of the source: active = growth inhibition above about 70%; inactive = the rest.
Use one of these outcomes when replying: 1 (active), -1 (inactive)

Enquiry: Could you check what this test reported for C1CC[CH]([Sn]([CH]2CCCCC2)[CH]2CCCCC2)CC1.C1CC[CH]([Sn]([CH]2CCCCC2)[CH]2CCCCC2)CC1 ?
Return: -1

Enquiry: Write down the call the test reported for this compound. Item: Cc1cccc(OCC(O)CN2CC2)c1 (centres undefined)
Return: 1

Enquiry: Query: recorded result category for C[CH2][Sn]1([CH2]C)[O]C2C(O)OC(CO)C(O)C2[O]1 (centres undefined) in this test
Return: 1

Enquiry: # fetch the recorded call for O=S(=O)(O)/C(=C\c1ccccc1)c1ccccc1 (tested in a mixture with another compound) here
Return: -1

Enquiry: Please let me know the test result on file for COC(=O)C1c2cc3c(c(O)c2C(O)CC1(C)O)C(=O)c1c(O)cc2c(c1C3=O)OC1OC2(C)C(O)C(N(C)C)C1O (centres undefined) .
Return: 1

Enquiry: Could you kindly confirm the outcome this assay logged for CCCCC1CCCCCCc2[nH]c(/C=C3\N=C(c4ccc[nH]4)C=C3OC)cc21 (centres undefined) ?
Return: 1

Enquiry: Entry Cc1ccc(C(=O)CCl)o1 : call = ?
Return: 1

Enquiry: Any idea what this test logged for C[CH2][Sn]([Cl])([CH2]C)[O][Sn]([Cl])([CH2]C)[CH2]C ?
Return: 1

Enquiry: # lookup: test call for CN(C)c1ccc(C2N(Cc3ccc(N(CCCl)CCCl)cc3Cl)CCCN2Cc2ccc(N(CCCl)CCCl)cc2Cl)cc1
Return: 1

====

MEASUREMENT DESCRIPTION: NCI Yeast Anticancer Drug Screen. Data for the rad14 strain (AID 159);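 further: 0% = growth of vehicle-treated control cultures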
EXPERIMENTAL SETUP: S. cerevisiae rad14 strain growth inhibition; at 33.0 µM; hits give high values
Compounds without any hit were thinned out: in the full panel of roughly 79,000, 15% have a hit.
EXPERIMENTAL ENDPOINT: growth inhibition (%)
Lab book: enter the figure in %, no units written.

growth inhibition in this record for Cn1cc(NC(=O)c2cc(NC(=O)CN=C(N)N)cn2C)cc1C(=O)NCCC(=N)N : 97

Measured growth inhibition of CC1CN=C(Nc2ccccc2)S1 (stereo unspecified) : -51

The molecule identified as COc1ccc(/C=C(/C)[N+](=O)[O-])cc1 registered its growth inhibition at 69

growth inhibition recorded for this molecule, O=[N+]([O-])c1ccc(C=Cc2ccccc2)cc1.[C-]#[O+].[C-]#[O+].[C-]#[O+].[Cr] , is 83

get_value(item= O=C(NNC(=O)OCC(Cl)(Cl)Cl)OCC(Cl)(Cl)Cl , readout=growth inhibition) returns 6

The value of growth inhibition measured for the molecule C=C[C@H]1CN2CC[C@H]1C[C@@H]2[C@@H](O)c1ccnc2ccccc12 turned out to be 0

Memo: OCC(O)C(O)CO (stereo unspecified) (tested in a mixture with another compound) , reported growth inhibition: -3

Item: Oc1c(Br)cc(Br)cc1Br | growth inhibition: 36

Memo: Nc1nc(-c2ccccc2)c(-c2ccccc2)[se]1 , reported growth inhibition: 13

Reported growth inhibition ( C/C(=N\N=C(N)N)C(CN1CCOCC1)C(c1ccccc1)c1c(O)c2ccccc2oc1=O (stereo unspecified) ) = 6

Please fill in: growth inhibition reported for CC1CCCN(CCc2ccccc2)CC1 (stereo unspecified) = 33

====

MEASUREMENT DESCRIPTION: NCI Yeast Anticancer Drug Screen. Data for the bub3 strain (AID 167)
EXPERIMENTAL SETUP: S. cerevisiae bub3 mutant strain, at 50.0 µM (retest, dose inferred, filed as 5.0), hits give high values
Compounds without any hit were thinned out: in the full panel of roughly 79,000, 15% have a hit.
EXPERIMENTAL ENDPOINT: growth inhibition (%)
Dear colleague, please return just the value in %, with no unit written.

The compound identified as CCC1(O)C(=O)OCc2c1cc1n(c2=O)Cc2c-1nc1ccccc1c2OC (centres undefined) registered its growth inhibition at 11

Form field growth inhibition, entry O=C1N[C@@H]2C(=C[C@H](O)[C@@H](O)[C@H]2O)c2cc3c(c(O)c21)OCO3 : 78

Please fill in: growth inhibition reported for [I][Hg][CH2]C1COCC([CH2][Hg][I])O1 (centres undefined) = -8

So, Cc1cc(NCc2ccccc2)c2ccccc2[n+]1CCCCCCCCCC[n+]1c(C)cc(NCc2ccccc2)c2ccccc21 ? Its growth inhibition was 99

Record C=Cc1ccccc1 (tested in a mixture with another compound) . Reported growth inhibition: -4

growth inhibition measured on COC(=O)C1c2cc3c(c(O)c2C(O)CC1(C)O)C(=O)c1c(O)cc2c(c1C3=O)OC1OC2(C)C(O)C(N(C)C)C1O (centres undefined) = 97

Data point: CC[C@@]1(O)C[C@H](OC2CC(N)C(O)C(C)O2)c2c(O)c3c(c(O)c2[C@H]1C(=O)OC)C(=O)c1cccc(O)c1C3=O (some centres undefined) ; growth inhibition = 99

The recorded growth inhibition for O=C(O)Cc1ccc2c(c1)OCO2.[Ag] is 93

Record O=c1c2ccccc2[se]n1-c1ccccc1 . Reported growth inhibition: 21

growth inhibition for CC(=O)O[C@H]1CC[C@H]2[C@@H]3CCC4=CC(=O)CC[C@@H]4[C@H]3CC[C@]12C is 84

Per the records, this compound ( c1ccc(P(CC[As](c2ccccc2)c2ccccc2)CC[As](c2ccccc2)c2ccccc2)cc1 ) has growth inhibition equal to 84

Reported growth inhibition of CNC(=O)OCC1C2=C(C(=O)C(C)=C(N)C2=O)N2CC3C(N3C)C12OC (centres undefined) : 43

Form: compound = CN(C)CC1CCCCC1=O (centres undefined) ; growth inhibition = -26

growth inhibition in this record for ClCCN(CCCl)c1ccc(C=NCCCCN=Cc2ccc(N(CCCl)CCCl)cc2)cc1 : 3

Noted for CCC[CH2][Sn]1([CH2]CCC)[S]CC[N]1S(=O)(=O)c1ccc(C)cc1 : its growth inhibition reads 98

Lab note: measured growth inhibition of Fc1cccc(C2N(Cc3ccc(N(CCCl)CCCl)cc3Cl)CCCN2Cc2ccc(N(CCCl)CCCl)cc2Cl)c1 was 92

The recorded growth inhibition for entry O=C(c1ccccc1)C1C(c2ccccc2[N+](=O)[O-])N1C1CCCCC1 (centres undefined) equals 72

The reported value for O=C1NC(=S)NC(=O)C1=C/C=C/c1ccccc1 in terms of growth inhibition is 84

Sure, the documented growth inhibition for O=c1ssc(Cl)c1Cl is 100

For record CCC[CH2][Sn]([Cl])([CH2]Cl)[CH2]CCC the listed growth inhibition is 99

# growth inhibition (compound: CCC(C)c1cc([N+](=O)[O-])cc([N+](=O)[O-])c1O (centres undefined) ) is 19

Measured growth inhibition, CCOc1ccc(/C=C/[N+](=O)[O-])cc1[N+](=O)[O-] : 99

Quick note, growth inhibition for COC1C(C)OC(OC2CC(C)(O)Cc3cc4c(c(O)c32)C(=O)c2c(O)cc3c(c2C4=O)OC2OC3(C)C(O)C(N(C)C)C2O)C(OC)C1(C)OC (centres undefined) landed at 94

The reported growth inhibition of the compound C[C@]12CC[C@H](OC(=O)COc3ccc(N(CCCl)CCCl)cc3)C[C@@H]1CC[C@@H]1[C@@H]2CC[C@]2(C)NC(=O)CC[C@@H]12 was 59

Briefly, growth inhibition measured for CC(O[Si](c1ccccc1)(c1ccccc1)C(C)(C)C)[C@H](NC(=O)OC(C)(C)C)C(=O)O (some centres undefined) : 95

Lab note: [Pt].c1ccc(P(CCP(c2ccccc2)c2ccccc2)CCP(c2ccccc2)c2ccccc2)cc1 gave growth inhibition of 91

Lab book: growth inhibition of CC(C)(C)c1cc([N+](=O)[O-])cc([N+](=O)[O-])c1O noted as 39

The recorded growth inhibition for entry CCOP(=O)(CP(=O)(OCC)OCC)OCC.[Cl][Sn]([Cl])([c]1ccccc1)[c]1ccccc1 equals 98

The compound listed as CCCCCCCCCCCCN1CC1 has a reported growth inhibition of 44

Recorded growth inhibition (compound C[C@]12CC/C(=N\OC(=O)Nc3ccccc3)C=C1CC[C@@H]1C2CC[C@@]2(C)C1CC[C@@H]2OC(=O)Nc1ccccc1 (some centres undefined) ): 65

// growth inhibition value for O=C1NC(=S)NC(=O)C1=Cc1ccc([N+](=O)[O-])o1 : 10

Note to self: growth inhibition recorded for Cc1ccc(C(=O)OC(C(=O)O)C(OC(=O)c2ccc(C)cc2)C(=O)O)cc1 (centres undefined) (tested in a mixture with another compound) was 88

Notebook: Cc1ccc(C(Cc2ccc(N3C(N)=NC(N)=NC3(C)C)cc2)C(=O)Nc2ccc(S(=O)(=O)F)cc2)cc1 (centres undefined) , growth inhibition read as 99

Measured growth inhibition of ClC1=C(Cl)C(Cl)(Cl)SS1 : 99

# growth inhibition (compound: CCOC(=O)C1C2OC(=O)C(C(=O)C2CN(CCCl)CCCl)C1C1CC=C(CC2=CCC(C3C4C(=O)OC(C(CN(CCCl)CCCl)C4=O)C3C(=O)OCC)CC2)CC1 (centres undefined) ) is 97

// sample O=C(Cl)c1ccccn1 , its growth inhibition was 99

The measured growth inhibition associated with CC[CH2][Sn]([CH2]CC)([CH2]CC)[CH2]CCBr reads 99

growth inhibition recorded for this compound, c1cc2c(cc1NC1=NCCO1)CCCC2 , is -8

growth inhibition in this record for CCCNC(=O)Nc1ccc2c(c1)Cc1cc(N(CCCl)CCCl)ccc1-2 : 86
